Provenance of the data: patent US20050038072A1

- target.or.system: substance P receptor (Homo sapiens, UniProt P25103)
- Construct: endogenous in cells; host or cells: IM-9 human lymphoblast cells (membrane preparation)
- Sequence (P25103 whole entry): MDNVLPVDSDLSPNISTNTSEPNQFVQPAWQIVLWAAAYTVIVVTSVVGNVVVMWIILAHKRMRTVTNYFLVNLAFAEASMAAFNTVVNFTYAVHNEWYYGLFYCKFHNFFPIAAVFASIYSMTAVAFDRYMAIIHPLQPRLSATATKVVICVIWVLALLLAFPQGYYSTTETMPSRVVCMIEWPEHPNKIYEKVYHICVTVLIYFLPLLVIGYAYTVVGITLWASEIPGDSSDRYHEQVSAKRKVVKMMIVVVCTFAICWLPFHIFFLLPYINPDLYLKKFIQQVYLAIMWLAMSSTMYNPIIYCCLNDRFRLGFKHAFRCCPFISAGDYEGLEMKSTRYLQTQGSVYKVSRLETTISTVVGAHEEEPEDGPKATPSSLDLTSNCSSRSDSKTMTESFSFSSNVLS
- protocol.text: Radioligand receptor binding inhibiting activity (binding inhibitory activity using receptor from human lymphoblast cell (IM-9))
- condition.notes: radioligand [125I]-labeled substance P (125I-BHSP), 25° C., 30 minutes
pIC50: −log10 of the molar value.
reported.metric: pIC50

Reference set, count: 5
COc1ccc(Br)cc1CN1CCC(=O)C(C(c2ccc(F)cc2)c2ccc(F)cc2)C1 (single isomer, unassigned; (-)) [Example 163] = 9.21
COc1ccc(OC(F)(F)F)cc1CN1CCC(=O)C(C(c2ccccc2)c2ccccc2)C1 (stereo not shown) [Example 168] = 9.47
CCOc1ccc([N+](=O)[O-])cc1CN1CCC(=O)C(C(c2ccccc2)c2ccccc2)C1 (stereo not shown) [Example 185] = 9.54
COc1ccc(NS(C)(=O)=O)cc1CN1CCC(=O)C(C(c2ccccc2)c2ccccc2)C1 (stereo not shown) [Example 183] = 9.59
CCOc1ccccc1CN1CCC(=O)C(C(c2ccccc2)c2ccccc2)C1 (stereo not shown) [Example 99] = 9.36

I. COc1ccc(C(C)C)cc1CN1CCC(=O)C(C(c2ccccc2)c2ccccc2)C1 (stereo not shown) [Example 175]
II. CCOc1ccccc1CN1CCC(=O)C(C(c2ccc(F)cc2)c2ccc(F)cc2)C1 (stereo not shown) [Example 98]
Query :: API: POST /compare with I and II ; response names the item with higher pIC50. Let me know the label of the one you choose.
Result :: I
(I: 9.38, II: 9.07)

----------
Counter-ions that a name gives are not always drawn.
reported.metric: melting point

COc1ccc(N(S(C)(=O)=O)S(C)(=O)=O)cc1CN1CCC(=O)C(C(c2ccccc2)c2ccccc2)C1 (stereo not drawn) = 132 to 135 °C
CCOc1cccc(OC)c1CN1CCC(=O)C(C(c2ccccc2)c2ccccc2)C1 (stereo not drawn) = 137 to 138 °C
O=C1CCNCC1C(c1ccccc1)c1ccccc1F (stereo not drawn) (as salt: hydrochloride) = 204 to 205 °C

Query :: Recorded melting point for COc1c(CN2CCC(=O)C(C(c3ccccc3)c3ccccc3)C2)cc(C(C)(C)C)cc1C(C)(C)C (stereo not drawn) , please?
Result :: 136 to 138 °C

Query :: Recorded melting point for O=C1CCN(Cc2ccccc2)CC1C(c1ccccc1)c1ccccc1F (stereo not drawn) (as salt: hydrochloride) , please?
Result :: 214 to 215 °C

Query :: Recorded melting point for COc1ccc(NS(C)(=O)=O)cc1CN1CCC(=O)C(C(c2ccccc2)c2ccccc2)C1 (stereo not drawn) , please?
Result :: 132 to 135 °C
